B1: Azoarcus group I ribozyme (parent)
chain: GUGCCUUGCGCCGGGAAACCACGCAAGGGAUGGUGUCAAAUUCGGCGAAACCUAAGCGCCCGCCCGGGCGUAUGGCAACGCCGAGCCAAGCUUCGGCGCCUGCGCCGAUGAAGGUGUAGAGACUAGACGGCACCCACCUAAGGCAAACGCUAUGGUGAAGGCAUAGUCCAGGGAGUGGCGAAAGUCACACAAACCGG

# Variants of: B1
# assay_info: reverse-splicing fitness (ratio to wild type); higher = more active; in vitro selection; Mg2+ level not given
Classification scheme (reverse-splicing fitness): label 0 (below 0.007), label 1 (0.007 to below 0.02), label 2 (0.02 or more)

**Q:** Band for C82G A111C A120U C169A U176G ?
**A:** label 0

**Q:** Band for C82U A111G A120C A145G C150U C169G U176G ?
**A:** label 0

**Q:** Band for C82G A111C A145G C150A U176G ?
**A:** label 1

**Q:** Band for A120U A145C U176G ?
**A:** label 2
